Biological target: hQC (Homo sapiens)
Assay: Fluorometric assay of glutaminyl cyclase (QC) inhibition, H-Gln-βNA or H-Gln-AMC substrate
Format: biochemical
Settings: read-out: IC50
QUANTITY KIND: IC50 (µM)

Sample records with IC50:
COMPOUND | IC50 / µM
CCc1ccccc1/N=C1\NC(=S)N(c2ccc3nc[nH]c3c2)C1C1CCC(C)=CC1C (stereo not shown) [Compound 288] | 7.6
O=C1N/C(=N\C2CC2)C(c2ccccc2C(F)(F)F)N1c1ccc2[nH]cnc2c1 (stereo not shown) [Compound 158] | 4.9
O=C(C/N=C1/NC(=O)N(CCCn2ccnc2)C1c1ccc(O)cc1)N1CCc2ccccc2C1 (stereo not shown) [Compound 79] | 3.1
Cc1cccc(C2/C(=N\Cn3nnc4ccccc43)NC(=O)N2c2ccc3nc[nH]c3c2)n1 (stereo not shown) [Compound 189] | 4
O=C1N/C(=N\c2ccc3c(c2)OCCO3)C(c2cccc(F)c2F)N1CCCn1ccnc1 (stereo not shown) [Compound 31] | 9.4
Cc1ccc2occ(C3/C(=N/CCCc4ccccc4)NC(=S)N3c3ccc4[nH]cnc4c3)c(=O)c2c1 (stereo not shown) [Compound 313] | 3.1
O=C1N/C(=N\C2CCCCC2)C(c2ccc(Cl)c(F)c2)N1CCCn1ccnc1 (stereo not shown) [Compound 5] | 7
C/N=C1/NC(=S)N(c2ccc3[nH]cnc3c2)C1c1ccc(C)cc1 (stereo not shown) [Compound 141] | 9.4

P: C/N=C1/NC(=O)N(c2ccc3[nH]cnc3c2)C1c1ccc2c(c1)OCCO2 (stereo not shown) [Compound 123]
Q: Cc1ccc2occ(C3/C(=N/C4CCCCC4O)NC(=O)N3c3ccc4[nH]cnc4c3)c(=O)c2c1 (stereo not shown) [Compound 127]
R: Cc1cccc(C2/C(=N/c3cc(Cl)ccc3Cl)NC(=S)N2c2ccc3[nH]cnc3c2)c1 (stereo not shown) [Compound 299]
S: O=C1N/C(=N\C2CCc3ccccc32)C(c2ccc3[nH]ccc3c2)N1c1ccc2[nH]cnc2c1 (stereo not shown) [Compound 218]
T: O=C(C/N=C1\NC(=S)N(c2ccc3nc[nH]c3c2)C1c1cc(Br)cs1)N1CCc2ccccc2C1 (stereo not shown) [Compound 182]
In: Order these by IC50, descending, and give the full ranking. Reply format: the labels, ordered as requested.
Out: R, Q, T, P, S

====

Target: hQC (Homo sapiens, UniProt Q16769)
Sequence (Q16769 29-361): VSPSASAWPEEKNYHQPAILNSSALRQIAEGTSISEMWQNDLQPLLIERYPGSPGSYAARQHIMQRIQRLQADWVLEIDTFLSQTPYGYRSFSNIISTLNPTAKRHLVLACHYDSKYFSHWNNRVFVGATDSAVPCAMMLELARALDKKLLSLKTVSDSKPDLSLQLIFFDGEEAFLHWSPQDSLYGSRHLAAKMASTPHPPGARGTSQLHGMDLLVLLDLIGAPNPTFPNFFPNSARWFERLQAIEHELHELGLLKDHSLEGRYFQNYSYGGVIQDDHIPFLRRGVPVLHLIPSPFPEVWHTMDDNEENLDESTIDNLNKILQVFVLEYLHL
Experiment: Fluorometric assay of glutaminyl cyclase (QC) inhibition, H-Gln-βNA or H-Gln-AMC substrate
Assay type: biochemical
Conditions: read-out: IC50
pIC50: −log10 of the molar value.
QUANTITY KIND: pIC50

COMPOUND | pIC50
O=C(C/N=C1/NC(=O)N(CCCn2ccnc2)C1C1CCC=CO1)N1CCc2ccccc2C1 (centres unmarked) [Compound 67] | 5.31
O=C(C/N=C1/NC(=O)N(c2ccc3[nH]cnc3c2)C1c1cccc(Br)c1)N1CCSCC1 (centres unmarked) [Compound 342] | 6.40
CCc1ccccc1/N=C1\NC(=O)N(c2ccc3[nH]cnc3c2)C1c1ccc2c(c1)OCO2 (centres unmarked) [Compound 287] | 5.51
S=C1N/C(=N\C2CCCCC2)C(c2cc3c(cc2Br)OCO3)N1c1ccc2nc[nH]c2c1 (centres unmarked) [Compound 266] | 5.07
C/N=C1/NC(=O)N(c2ccc3[nH]cnc3c2)C1c1ccc2c(c1)OCO2 (centres unmarked) [Compound 195] | 5.89

a: S=C1NC(=Nc2ccccc2Br)C(c2ccc3[nH]ccc3c2)N1c1ccc2nc[nH]c2c1 (centres unmarked) [Compound 291]
b: Fc1ccc(/N=C2\NC(=S)N(c3ccc4[nH]cnc4c3)C2c2ccnc3ccccc23)cc1 (centres unmarked) [Compound 202]
In: Sorting by pIC50 in descending order, would a or b appear first? Write down the label of the entry you select.
Out: a

1: CCCCC1C(=NC(C)c2ccccc2)NC(=O)N1CCCn1ccnc1 (centres unmarked) [Compound 11]
2: O=C1N/C(=N/CCc2cccs2)C(c2cc(F)cc(F)c2)N1CCCn1ccnc1 (centres unmarked) [Compound 41]
In: Between item 1 and item 2 , which reported pIC50 is smaller? Give the label under which the chosen entry appears.
Out: 1
(1: 5.06, 2: 5.51)

P: O=C1N/C(=N/Cn2nnc3ccccc32)C(c2ccc(Cl)cc2)N1c1ccc2[nH]cnc2c1 (centres unmarked) [Compound 128]
Q: S=C1N/C(=N\C2CCCC2)C(c2ccc3ccccc3c2)N1c1ccc2[nH]cnc2c1 (centres unmarked) [Compound 256]
In: Hey, which is lower on measured pIC50, P or Q ? Use the label to indicate which entry you chose.
Out: Q
(Q: 5.03, P: 5.51)

P: C/N=C1/NC(=O)N(CCCn2ccnc2)C1C1CCC=CO1 (centres unmarked) [Compound 15]
Q: C/N=C1/NC(=O)N(c2ccc3[nH]cnc3c2)C1c1ccc2ccccc2c1 (centres unmarked) [Compound 159]
In: Of P and Q , which one carries the higher reported pIC50? Your answer should be the label of the entry you select.
Out: Q
